# SUBJECT_OF_TEST: Carbonic anhydrase 9 (Homo sapiens, UniProt Q16790)
# PROTOCOL_DETAILS: Inhibition of carbonic anhydrase 9 (unknown origin) using 4-nitrophenylacetate as substrate by UV/visible spectrophotometer analysis
REPORTED_PROPERTY: IC50 (nM)
Record the value in nM, omitting the unit from your answer.

What the record says about Nc1ccc(S(=O)(=O)Nc2ccsc2-c2nc(-c3ccccc3)no2)cc1 : IC50 is 740

###

Quick record: IC50, Carbonic anhydrase 9 (Homo sapiens).
Record the value in µM, omitting the unit from your answer.

NS(=O)(=O)c1ccc(O)cc1; 32

We next turn to a different molecule, shown below.
What the record says about CO[C@@H]1O[C@H](Cn2cc(COc3ccc(S(N)(=O)=O)cc3)nn2)[C@@H](O)[C@H](O)[C@H]1O : IC50 is 0.007

###

Recorded Ki values for a group of compounds are listed next.
# SUBJECT_OF_TEST: UniProt Q16790

COc1cc(C2CC(c3cccs3)=NN2c2ccc(S(N)(=O)=O)cc2)cc(OC)c1OC (configuration not stated); ≥ 0.044 µM

We next turn to a different compound, shown below.
The compound COc1cc(C2CC(c3ccc(F)cc3)=NN2c2ccc(S(N)(=O)=O)cc2)cc(OC)c1OC (configuration not stated) on UniProt Q16790: Ki was ≥ 0.044 µM

###

# Test system: HL-60
# Format: functional, cell-based
# COND: Homo sapiens, HL-60, 72 h
REPORTED_PROPERTY: IC50 (µM)
Record the value in µM, omitting the unit from your answer.

O=C(NS(=O)(=O)c1ccc(Cl)c([N+](=O)[O-])c1)[C@@H]1Cc2cc(Br)c(OCc3ccc(-c4ccccc4)cc3)c(Br)c2CC1Cc1ccc([N+](=O)[O-])cc1 (some centres not stated); 12.8

We next turn to a different compound, shown below.
The compound N#Cc1ccc(CC2Cc3c(cc(Br)c(OCc4ccc(-c5ccccc5)cc4)c3Br)C[C@H]2C(=O)NS(=O)(=O)c2ccc(Cl)c([N+](=O)[O-])c2)cc1 (some centres not stated) on HL-60: IC50 was 12.8

###

# SUBJECT_OF_TEST: Induced myeloid leukemia cell differentiation protein Mcl-1 (Homo sapiens)
# PROTOCOL_DETAILS: Inhibition of fluorescent-labeled BID-BH3 peptide binding to Mcl-1 (unknown origin) by fluorescence polarization assay
Recorded pKi values for a group of molecules are listed next.
// pKi is dimensionless: -log10 of concentration (M)

O=C(NS(=O)(=O)c1ccc(Cl)c([N+](=O)[O-])c1)[C@@H]1Cc2cc(Br)c(OCc3ccc(-c4ccccc4)cc3)c(Br)c2CC1Cc1ccc([N+](=O)[O-])cc1 (some centres not stated); 6.59

The molecule N#Cc1ccc(CC2Cc3c(cc(Br)c(OCc4ccc(-c5ccccc5)cc4)c3Br)C[C@H]2C(=O)NS(=O)(=O)c2ccc(Cl)c([N+](=O)[O-])c2)cc1 (some centres not stated) on Induced myeloid leukemia cell differentiation protein Mcl-1 (Homo sapiens): pKi was 6.46

###

# SUBJECT_OF_TEST: Induced myeloid leukemia cell differentiation protein Mcl-1 (Homo sapiens, UniProt Q07820)
# Sequence (Q07820 whole entry, the tested form may be a part): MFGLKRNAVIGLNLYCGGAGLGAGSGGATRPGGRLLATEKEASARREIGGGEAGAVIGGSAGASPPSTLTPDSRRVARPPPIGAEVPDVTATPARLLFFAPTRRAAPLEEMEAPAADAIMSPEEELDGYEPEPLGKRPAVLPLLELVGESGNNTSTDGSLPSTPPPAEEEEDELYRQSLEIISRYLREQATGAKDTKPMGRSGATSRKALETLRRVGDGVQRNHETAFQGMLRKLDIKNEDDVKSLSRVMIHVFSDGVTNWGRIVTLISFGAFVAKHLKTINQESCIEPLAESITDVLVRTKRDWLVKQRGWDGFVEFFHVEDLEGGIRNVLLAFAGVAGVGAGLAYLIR
# PROTOCOL_DETAILS: Inhibition of TAMRA-labeled BIM-BH3 peptide binding to 6His-tagged human recombinant Mcl-1 (171 to 327 residues) incubated for 120 mins by fluorescence polarization assay
Recorded IC50 values for a group of molecules are listed next.
Record the value in nM, omitting the unit from your answer.

O=C1NSCCOCCCCCCN2C[C@@]3(CCc4cc(Cl)ccc43)COc3ccc1cc32; 10

We next turn to a different molecule, shown below.
The molecule CC(C)CN1C[C@H](c2ccc(Cl)cc2Cl)Oc2ccc(C(=O)O)cc21 on Induced myeloid leukemia cell differentiation protein Mcl-1 (Homo sapiens, UniProt Q07820): IC50 was 2100
